- PROTOCOL: chemical genetic growth profiling, strain panel (AID 1159580);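 further: tested at 20 µM; growth read once vehicle control cultures reached saturation at 30 °C; lower values mean less growth of the strain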
- MEASUREMENT CONTEXT: S. cerevisiae deletion strains, growth OD, locus YMR058W, strain fet3
Out of some 5,500 compounds screened, about 2,000 (36%) were called active. Inconclusive results (about 18%) are left out. No stated cut-off is given here; in the data, active means normalized growth mostly below about 0.91 (no sharp cut-off); inconclusive means no clear call, values can overlap the other calls; inactive means mostly above about 0.92. This is one part of the list.
Labels: active, inactive

1. O=C(c1ccccc1)c1ccc2n1CCC2C(=O)O (stereo not drawn) = inactive
2. COc1ccc(CC(=O)c2ccc(O)cc2O)cc1 = inactive
3. CCC[C@@H]1C[C@@H](C(=O)N[C@H]([C@H]2O[C@H](SC)[C@H](O)[C@@H](O)[C@H]2O)[C@H](C)O)N(C)C1 = inactive
4. CCCCCCCCCCCCCCCC(=O)OC[C@H](NC(=O)C(Cl)Cl)[C@H](O)c1ccc([N+](=O)[O-])cc1 = active
5. CC(C)=CCC/C(C)=C/CO = inactive
6. O=C(O)CCC(=O)OC[C@@H](NC(=O)C(Cl)Cl)[C@H](O)c1ccc([N+](=O)[O-])cc1 = inactive
7. O=C1C=CC(=O)c2ccccc21 = active
8. O=C(N[C@@H](CO)[C@H](O)c1ccc([N+](=O)[O-])cc1)C(Cl)Cl = inactive
9. C/C(=C\CO)CC[C@H](C)CCC[C@H](C)CCCC(C)C = active
10. C=C(C)C1Cc2c(ccc3c(=O)c4c(oc23)COc2cc(OC)c(OC)cc2-4)O1 (stereo not drawn) = inactive
11. COC(=O)CC1C(C)(C(=O)c2ccoc2)CC2OCC34C(CC(=O)OC)C5(C)CC36OC3(C)OC1(C(OC(C)=O)C6(OC(C)=O)C5OC(=O)C(C)C)C24O3 (stereo not drawn) = inactive
12. O=c1c(O)c(-c2ccccc2)oc2ccccc12 = active
13. COc1ccccc1OCC(O)COC(N)=O (stereo not drawn) = inactive
14. CC(NC(C)(C)C)C(=O)c1cccc(Cl)c1 (stereo not drawn) = inactive
15. COc1ccc(NS(=O)(=O)c2ccc(N)cc2)nn1 = inactive
16. CCCN(CCC)c1c([N+](=O)[O-])cc(C(F)(F)F)cc1[N+](=O)[O-] = inactive
17. CC(=O)NC1C(O)OC(COS(=O)(=O)O)C(OC2OC(C(=O)O)C(OC3OC(CO)C(OC4OC(C(=O)O)C(O)C(O)C4OS(=O)(=O)O)C(OS(=O)(=O)O)C3NS(=O)(=O)O)C(O)C2OS(=O)(=O)O)C1O (stereo not drawn) = inactive
18. COc1cc(Cc2cnc(N)nc2N)cc(OC)c1OC = inactive
